Molecular target: P2X7 receptor (Mus musculus)
Construct: mP2X7 (IC50; nM); other: mP2X7; HEK-293 cells stably transfected with P2X7 receptor, Bz-ATP at EC80, Fluo-8 NW; potency
Sequence (Q9Z1M0 1-595): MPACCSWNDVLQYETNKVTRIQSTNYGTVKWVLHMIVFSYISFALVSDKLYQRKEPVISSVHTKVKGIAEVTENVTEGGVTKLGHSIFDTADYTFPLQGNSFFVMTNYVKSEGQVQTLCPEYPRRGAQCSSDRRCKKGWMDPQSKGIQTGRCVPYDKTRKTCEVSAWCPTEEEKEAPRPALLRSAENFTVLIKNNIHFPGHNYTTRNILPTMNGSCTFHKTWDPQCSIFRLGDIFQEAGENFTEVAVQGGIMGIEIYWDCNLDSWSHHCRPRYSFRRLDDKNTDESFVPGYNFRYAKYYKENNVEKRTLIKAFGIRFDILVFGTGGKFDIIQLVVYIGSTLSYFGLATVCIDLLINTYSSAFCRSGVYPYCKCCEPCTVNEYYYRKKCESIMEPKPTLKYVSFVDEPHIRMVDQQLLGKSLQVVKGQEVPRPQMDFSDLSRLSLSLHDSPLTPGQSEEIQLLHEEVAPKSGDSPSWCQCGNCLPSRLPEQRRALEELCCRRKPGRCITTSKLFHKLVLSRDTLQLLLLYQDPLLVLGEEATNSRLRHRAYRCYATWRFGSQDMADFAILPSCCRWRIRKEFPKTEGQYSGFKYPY
Experiment: Screen Quest Fluo-8 No Wash Calcium Assay (Bz-ATP evoked Ca2+ influx, FLIPR)
Type: cell-based
Details: mP2X7; HEK-293 cells stably transfected with P2X7 receptor, Bz-ATP at EC80, Fluo-8 NW; potency ranges A-D
measured.attribute: IC50

The following compounds have reported results that may help.
[
  {
    "compound": "O=c1onc(C(O)c2cccc(C(F)(F)F)c2Cl)n1Cc1ccccc1 (stereo not shown)",
    "system.tested": "P2X7 receptor (Mus musculus)",
    "IC50": "> 10000 nM"
  },
  {
    "compound": "O=c1onc(Cc2ccccc2Cl)n1Cc1ccc(F)cc1",
    "system.tested": "P2X7 receptor (Mus musculus)",
    "IC50": "1000 to 10000 nM"
  },
  {
    "compound": "COc1ccc(Cn2c(Cc3ccc(F)cc3)noc2=O)cc1",
    "system.tested": "P2X7 receptor (Mus musculus)",
    "IC50": "> 10000 nM"
  },
  {
    "compound": "O=c1onc(Cc2ccc(Cl)cc2Cl)n1CC1CCCCC1",
    "system.tested": "P2X7 receptor (Mus musculus)",
    "IC50": "1000 to 10000 nM"
  },
  {
    "compound": "O=c1onc(Cc2cccc(C(F)(F)F)c2Cl)n1Cc1ccc(F)cc1",
    "system.tested": "P2X7 receptor (Mus musculus)",
    "IC50": "> 10000 nM"
  },
  {
    "compound": "O=c1snc(Cc2c(F)cccc2Cl)n1CC1CCC(F)(F)CC1",
    "system.tested": "P2X7 receptor (Mus musculus)",
    "IC50": "< 200 nM"
  }
]

Q: Return reported IC50; argument: O=c1onc(Cc2c(F)cccc2Cl)n1CCCN1CCCCC1
Result: > 10000 nM

---

Molecular target: P2X7 receptor (Homo sapiens, UniProt Q99572)
Sequence (Q99572 whole entry): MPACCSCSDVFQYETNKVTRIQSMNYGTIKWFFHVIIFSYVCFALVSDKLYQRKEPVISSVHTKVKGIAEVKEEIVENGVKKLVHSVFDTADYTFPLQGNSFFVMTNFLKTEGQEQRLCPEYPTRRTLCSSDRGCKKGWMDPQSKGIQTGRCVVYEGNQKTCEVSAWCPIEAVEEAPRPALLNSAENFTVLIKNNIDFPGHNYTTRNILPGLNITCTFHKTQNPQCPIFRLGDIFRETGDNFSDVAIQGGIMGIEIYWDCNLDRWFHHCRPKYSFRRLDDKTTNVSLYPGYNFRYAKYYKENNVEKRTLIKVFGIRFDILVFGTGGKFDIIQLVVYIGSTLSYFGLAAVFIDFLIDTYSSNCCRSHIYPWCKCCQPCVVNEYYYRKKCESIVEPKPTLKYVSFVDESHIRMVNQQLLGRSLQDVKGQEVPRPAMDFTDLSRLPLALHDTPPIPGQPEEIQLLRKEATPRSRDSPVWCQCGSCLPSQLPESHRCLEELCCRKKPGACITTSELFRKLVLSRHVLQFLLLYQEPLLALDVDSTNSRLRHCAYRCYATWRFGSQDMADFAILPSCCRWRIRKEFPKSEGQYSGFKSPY
Assay: Automated patch-clamp (QPatch16X) P2X7 channel assay
Type: cell-based
Design: expressed in transfected cells; host or cells: HEK-293
Conditions: HEK-293 cells expressing P2X7 channels; whole-cell, held at -80 mV; 100 microM BzATP; compound 1, 10, 100 and 1000 nM; read-out: Q-Patch (IC50)
Would you mind telling me the reported pIC50 of each entry?
One number for each entry, as −log10 of the molar value.

The following molecules have reported results that may help.
[
  {
    "molecule": "O=c1onc(Cc2cccc(Cl)c2Cl)n1CC1CCCCC1 [Example 115]",
    "value.observed": 7.14
  },
  {
    "molecule": "O=c1onc(Cc2ccccc2F)n1CC1CCCCC1 [Example 120]",
    "value.observed": 6.79
  },
  {
    "molecule": "O=c1onc(Cc2c(F)cccc2Cl)n1CC1CCC(F)(F)C1 (single isomer, unassigned) [Example 149]",
    "value.observed": 7.16
  },
  {
    "molecule": "O=c1onc(Cc2ccccc2Cl)n1CC1CCCCC1 [Example 117]",
    "value.observed": 7.02
  },
  {
    "molecule": "O=c1onc(Cc2c(F)cccc2Cl)n1CCC1CCCCC1 [Example 142]",
    "value.observed": 6.82
  }
]

Hi there! I need pIC50 for each item below, if you can.
1. O=c1onc(Cc2c(F)cccc2Cl)n1CC1(F)CCCCC1 [Example 96]
2. O=c1onc(CC2CCCCC2)n1Cc1c(F)cccc1Cl [Example 130]
3. O=c1onc(Cc2c(F)cccc2Cl)n1CC12CCC(CC1)C2 [Example 91]
4. CC(c1ccc(F)cc1)n1c(Cc2c(F)cccc2Cl)noc1=O (stereo not shown) [Example 48]
5. CC1(C)CCCCC1Cn1c(Cc2c(F)cccc2Cl)noc1=O (stereo not shown) [Example 99]
6. O=c1snc(Cc2c(F)cccc2Cl)n1CC1CCC(F)(F)CC1 [Example 141]

Result:
6.61
7.02
7.66
6.41
6.91
8.52

Hi there! I need pIC50 for each item below, if you can.
1. O=c1onc(Cc2c(F)cccc2Cl)n1Cc1cccc(F)c1 [Example 26]
2. Cc1noc(C)c1Cc1noc(=O)n1CC1CCC(F)(F)CC1 [Example 211]
3. O=c1onc(Cc2c(F)cccc2Cl)n1Cc1ccc(F)cc1Cl [Example 60]

Result:
[6.74, 6.92, 6.21]

Hi there! I need pIC50 for each item below, if you can.
1. O=c1onc(Cc2c(F)cccc2Cl)n1CC1CCCCO1 (stereo not shown) [Example 94]
2. O=c1onc(Cc2c(F)cccc2Cl)n1CC1CCCCC1(F)F (stereo not shown) [Example 97]
3. O=c1onc(Cc2c(F)cccc2Cl)n1Cc1ccc(F)cc1 [Example 55]
4. O=c1onc(Cc2ccc(Cl)cc2Cl)n1CC1CCCCC1 [Example 118]
5. O=c1onc(Cc2ccc(F)cc2Cl)n1CC1CCCCC1 [Example 114]
6. O=c1snc(Cc2c(F)cccc2Cl)n1CC1CCCCC1 [Example 140]
7. O=c1onc(Cc2ccc(F)cc2)n1Cc1c(F)cccc1Cl [Example 1]

Result:
[6.48, 7.00, 7.47, 5.96, 6.78, 7.41, 6.61]

Hi there! I need pIC50 for each item below, if you can.
1. O=c1onc(Cc2cccc(Cl)c2Cl)n1Cc1ccc(F)cc1 [Example 71]
2. O=c1onc(Cc2cccc(F)c2)n1Cc1c(F)cccc1Cl [Example 81]
3. O=c1onc(Cc2ccc(F)cc2F)n1CC1CCCCC1 [Example 119]
4. O=c1onc(Cc2c(F)cccc2Cl)n1Cc1ccc(F)cc1F [Example 61]
5. O=c1onc(Cc2c(F)cccc2Cl)n1CC1CC2CCC1C2 (stereo not shown) [Example 88]

Result:
1: 5.93; 2: 6.53; 3: 6.57; 4: 6.83; 5: 7.46

Hi there! I need pIC50 for each item below, if you can.
1. O=c1onc(Cc2c(F)cccc2Cl)n1CC1CCCC1 [Example 85]
2. O=c1onc(Cc2c(F)cccc2Cl)n1CC1CCCCCC1 [Example 92]

Result:
[6.78, 7.74]

---

Would you mind telling me the reported IC50 of each entry?
Molecular target: P2X7 receptor (Rattus norvegicus, UniProt Q64663)
Construct: rP2X7 (IC50; nM); other: rP2X7; HEK-293 cells stably transfected with P2X7 receptor, Bz-ATP at EC80, Fluo-8 NW; potency
Sequence (Q64663 1-595): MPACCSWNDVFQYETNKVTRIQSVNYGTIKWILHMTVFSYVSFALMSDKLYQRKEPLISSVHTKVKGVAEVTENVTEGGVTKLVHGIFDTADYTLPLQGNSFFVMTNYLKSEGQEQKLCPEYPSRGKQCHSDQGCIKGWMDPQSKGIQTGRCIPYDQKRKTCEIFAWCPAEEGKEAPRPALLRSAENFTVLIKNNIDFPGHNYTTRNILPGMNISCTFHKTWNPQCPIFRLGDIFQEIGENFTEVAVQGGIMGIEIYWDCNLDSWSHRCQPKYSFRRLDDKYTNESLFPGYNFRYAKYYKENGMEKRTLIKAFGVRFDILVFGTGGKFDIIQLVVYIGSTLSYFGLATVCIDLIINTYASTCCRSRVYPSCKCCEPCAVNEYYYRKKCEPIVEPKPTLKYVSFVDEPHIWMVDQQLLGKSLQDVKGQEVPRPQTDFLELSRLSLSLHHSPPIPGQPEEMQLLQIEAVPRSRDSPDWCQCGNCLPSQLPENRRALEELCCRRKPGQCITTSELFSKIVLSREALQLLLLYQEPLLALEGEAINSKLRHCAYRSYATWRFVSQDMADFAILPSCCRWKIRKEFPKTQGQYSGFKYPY
Assay: Screen Quest Fluo-8 No Wash Calcium Assay (Bz-ATP evoked Ca2+ influx, FLIPR)
Assay type: cell-based
Settings: rP2X7; HEK-293 cells stably transfected with P2X7 receptor, Bz-ATP at EC80, Fluo-8 NW; potency ranges A-D
Procedure: Extracellular binding of Bz-ATP to P2X7 receptor opens the channel and allows Ca2+ influx into the cells. […] Its fluorescence increases upon binding to calcium. HEK-293 cells stably transfected with P2X7 receptor were seeded overnight in growth medium at 10,000 to 20,000 cell/well in 384-well plate. […] Then 10 μL/w of tests compounds and reference antagonist A438079 at 3×-concentration were injected with the […] and the kinetic response over a period of five minutes was monitored. […]

The following molecules have reported results that may help.
[
  {
    "molecule": "O=c1onc(Cc2c(F)cccc2Cl)n1CC1CCC(F)(F)CC1 [Example 84]",
    "IC50": "< 200 nM"
  },
  {
    "molecule": "CC1(C)CCC(Cn2c(Cc3c(F)cccc3Cl)noc2=O)CC1 [Example 86]",
    "IC50": "200 to 1000 nM"
  },
  {
    "molecule": "O=c1onc(Cc2c(F)cccc2Cl)n1CC1CCCCC1 [Example 82]",
    "IC50": "< 200 nM"
  },
  {
    "molecule": "O=c1onc(Cc2c(F)cccc2Cl)n1Cc1ccccc1C(F)(F)F [Example 23]",
    "IC50": "1000 to 10000 nM"
  },
  {
    "molecule": "O=c1onc(Cc2ccncc2)n1Cc1ccc(F)cc1 [Example 79]",
    "IC50": "> 10000 nM"
  },
  {
    "molecule": "COc1cccc(Cc2noc(=O)n2Cc2ccc(F)cc2)c1 [Example 109]",
    "IC50": "1000 to 10000 nM"
  },
  {
    "molecule": "O=c1onc(Cc2c(F)cccc2Cl)n1Cc1ccc(C(F)(F)F)o1 [Example 66]",
    "IC50": "200 to 1000 nM"
  },
  {
    "molecule": "O=c1onc(Cc2ccc(F)cc2)n1Cc1cc(F)ccc1Br [Example 5]",
    "IC50": "> 10000 nM"
  },
  {
    "molecule": "Cc1nn(C)c(C)c1Cc1noc(=O)n1CC1CCC(F)(F)CC1 [Example 215]",
    "IC50": "200 to 1000 nM"
  },
  {
    "molecule": "O=c1onc(Cc2ccc(F)cc2)n1Cc1cccc(Cl)c1Cl [Example 50]",
    "IC50": "> 10000 nM"
  }
]

Hi there! I need IC50 for each item below, if you can.
1. O=c1onc(Cc2c(F)cccc2Cl)n1CC1CC2C(C1)C2(F)F (stereo not shown) [Example 173]
2. Cc1ccc(Cn2c(Cc3c(F)cccc3Cl)noc2=O)cc1 [Example 67]
3. O=c1onc(Cc2c(F)cccc2Cl)n1Cc1ccoc1 [Example 44]
4. CC(C)(c1c(F)cccc1Cl)c1noc(=O)n1Cc1ccc(F)cc1 [Example 77]

Result:
1: < 200 nM; 2: 1000 to 10000 nM; 3: 1000 to 10000 nM; 4: > 10000 nM

Hi there! I need IC50 for each item below, if you can.
1. Cc1ncsc1Cn1c(Cc2ccc(F)cc2)noc1=O [Example 8]
2. CC(c1ccc(F)cc1)n1c(Cc2c(F)cccc2Cl)noc1=O (stereo not shown) [Example 48]
3. O=c1onc(Cc2c(F)cccc2Cl)n1Cc1ccc(Cl)cc1 [Example 65]
4. O=c1onc(Cc2ccc(F)cc2Cl)n1Cc1c(F)cccc1Cl [Example 14]
5. O=c1onc(Cc2ccc(F)cc2Cl)n1CC1CCCCC1 [Example 114]
6. O=c1onc(Cc2c(F)cccc2Cl)n1Cc1c(F)cccc1Cl [Example 18]
7. O=c1onc(Cc2c(F)cccc2Cl)n1CCCC1CCCCC1 [Example 179]
8. Cn1ccnc1Cn1c(Cc2c(F)cccc2Cl)noc1=O [Example 47]

Result:
> 10000 nM
200 to 1000 nM
200 to 1000 nM
1000 to 10000 nM
< 200 nM
1000 to 10000 nM
> 10000 nM
> 10000 nM
